Each entry below carries its reported Enzyme Activity Endpoint Assay: IgG.
target: pooled human IgG (human IgG1, 2, 3 and 4) (human); test: cell-based or functional assay; note: test concentration or dose not given here
Form entry: value (ng/µL) — number only.

# count of solved cases: 2
>  <Binder>
PRT-393 (enzyme) MVTSVWTKGVTPPTNFTYGEDVLHAPYVANQGWYDITKTFNGKDDLLCGAATAGNMLHWWFDQNKEQIENYLKKHPEKQKINFNGEQMFDVKEAIDTKDSQLDSKLFEYFKEKAFPYLSTKHLGVFPDHVIDMFINGYRLSLTNHGPTPVKRGSKDPRGGIFDAVFTRGDQSKLLTNRHDFKEKTLKEISDLIKQELTEGKALGISHTYANVRINHVINLWGADFDAEGNLEAIYVTDSDTNASIGMKKYFVGVNSNGKVAISAKEIEEDNIGAQVLGLFTLSTGQDIWNQTN

>  <Readout name>
Enzyme Activity Endpoint Assay: IgG

>  <Output unit>
ng/µL

>  <Endpoint result>
0

$$$$
>  <Binder>
PRT-444 (enzyme) MSQTEDSESLQRLRDIEDFQAEKKKQNVVYTKWLDGVDVKDHDFRKIVDGNIAYYATPLLNGRGFYDINKDFNRDSDKCAAAVAANMFHYWLDRNRDNVDRFLRQNPEKHGIIELPDGQLKLSDFLNTYESDDGYRDKSKLFDFISNNFNKPVWTDKLLDNYINGYAYNYKYGRTIEDPTKNTSKINFFKEVFNEKILTNNHSIRNQNEFSVLLSEALYTGKAIGLSYGPAGLRHSLGHIISVWGADLDADGNVVAIYVTDSDDKKLTIGDERVGLKRYKISTDDEGRLRLTAYEETHNTGGQIRGLWTLDTGKQAWADYFDKTEQTGTDQAEQ

>  <Readout name>
Enzyme Activity Endpoint Assay: IgG

>  <Output unit>
ng/µL

>  <Endpoint result>
0

$$$$

Next up:
Please fill in: Enzyme Activity Endpoint Assay: IgG reported for PRT-280 (enzyme) MVTSVWTKGVTPPAKFTQGEDVFHAPYVANQGWYDITKTFNGKDDLLCGAATAGNMLHWWFDQNKEKIEAYLKKHPDKQKIMFGDQELLDVRKVINTKGDQTNSELFNYFRDKAFPNLSARRIGVMPDLVLDMFINGYYLNVYKTQTTDVNRTYQEKDRRGGIFDAVFTRGDQSKLLTSRHDFKEKNLKEISDLIKKELTEGKALGLSHTYANVGINHVINLWGADFDSNGNLKAIYVTDSDSNASIGMKKYFVGVNSSGKVAISAKEIKEDNIGAQVLGLFTLSTGQDSWNQTN = 319
